From: patent US20240018237A1

# TEST SYSTEM: T1, human ROR1 (full-length, on the cell surface) (human, UniProt Q01973 30-937)
# T1 construct: whole, on cells; the tumour cell lines carry their own ROR1; also called Ba/F3-ROR1 cells; Jeko-1
# T1 sequence (Q01973 30-937): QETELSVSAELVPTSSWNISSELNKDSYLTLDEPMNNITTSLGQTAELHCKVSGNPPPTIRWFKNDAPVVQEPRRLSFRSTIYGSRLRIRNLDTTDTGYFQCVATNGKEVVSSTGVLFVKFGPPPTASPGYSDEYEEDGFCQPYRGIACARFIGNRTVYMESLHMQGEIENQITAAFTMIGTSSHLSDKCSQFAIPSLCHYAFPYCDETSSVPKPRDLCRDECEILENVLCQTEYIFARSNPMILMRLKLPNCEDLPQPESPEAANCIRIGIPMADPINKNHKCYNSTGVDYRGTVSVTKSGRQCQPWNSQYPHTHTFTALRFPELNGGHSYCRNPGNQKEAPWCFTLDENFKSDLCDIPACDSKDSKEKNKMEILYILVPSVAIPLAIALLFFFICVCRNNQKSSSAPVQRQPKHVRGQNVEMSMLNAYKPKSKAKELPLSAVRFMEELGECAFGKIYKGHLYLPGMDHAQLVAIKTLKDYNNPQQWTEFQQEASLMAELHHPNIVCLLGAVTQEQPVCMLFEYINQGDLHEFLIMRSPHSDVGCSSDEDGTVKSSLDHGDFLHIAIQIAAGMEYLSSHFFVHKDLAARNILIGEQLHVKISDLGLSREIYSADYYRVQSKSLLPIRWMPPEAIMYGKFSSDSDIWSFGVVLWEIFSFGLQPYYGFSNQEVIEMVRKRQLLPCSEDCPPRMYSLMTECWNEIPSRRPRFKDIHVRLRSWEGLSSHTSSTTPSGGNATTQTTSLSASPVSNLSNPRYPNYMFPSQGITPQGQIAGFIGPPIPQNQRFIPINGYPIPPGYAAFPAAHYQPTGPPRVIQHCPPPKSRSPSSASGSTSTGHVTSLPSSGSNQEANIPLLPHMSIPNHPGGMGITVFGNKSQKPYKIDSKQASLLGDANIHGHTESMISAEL
# ASSAY COMMENT: flow cytometry, Ba/F3-ROR1 cells
PROPERTY: EC50 (nM)
Kindly answer with a numeric value in nM, unit omitted.

# input Look up EC50 for this binder: 3D8-Hu47 (antibody, human IgG1, kappa, V domains shown, humanized, human IgG1 / kappa) VH: EVQLVESGGGLVQPGGSLRLSCAASGFTFSSYAMSWVRQAPGKGLEWVSSINSGGSTYYPDSVKGRFTISRDNSKNTLYLQMNSLRAEDTAVYYCARVNYYGYGDYAMDYWGQGTLVTVSS VL: DIQMTQSPSSLSASVGDRVTITCQASQDISNYLSWFQQKPGKSPKTLIYRANRLVTGVPSRFSGSGSGTDYTFTISSLQPEDIATYYCLQYDEFPYTFGGGTKLEIKR
# output 0.28

# input Look up EC50 for this binder: 38F8-Hu34 (antibody, human IgG1, kappa, V domains shown, humanized, human IgG1 / kappa) VH: QVQLVESGGGLVKPGGSLRLSCAASGFTFSNYAMSWVRQAPGKGLEWVASISSGGPTYYADSVKGRFTISRDNAKNSLYLQMNSLRAEDTAVYYCARGYRYDVNWYFDVWGAGTMVTVSS VL: DIQMTQSPSSLSASVGDRVTITCQASQDISNYLTWFQQKPGKSPKTLIHRANRLVTGVPSRFSGSGSGTDFTFTISSLQPEDIATYYCLQYDEFPYTFGGGTKVEIKR
# output 1.23

# input Look up EC50 for this binder: 38F8-Hu67 (antibody, human IgG1, kappa, V domains shown, humanized, human IgG1 / kappa) VH: QVQLVESGGGLVKPGGSLRLSCAASGFTFSNYAMSWVRQAPEKRLEWVASISSGGPTYYPDSVKGRFTISRDNAKNSLYLQMNSLRAEDTAVYYCARGYRYDVNWYFDVWGAGTMVTVSS VL: DIQMTQSPSSLSASVGDRVTITCQASQDISNYLTWFQQKPGKSPKTLIHRANRLVTGVPSRFSGSGSGTDYTFTISSLQPEDIAIYYCLQYDEFPYTFGGGTKVEIKR
# output 0.84

# input Look up EC50 for this binder: 3D8-Hu87 (antibody, human IgG1, kappa, V domains shown, humanized, human IgG1 / kappa) VH: EVQLVESGGGLVQPGGSLRLSCAASGFTFSSYAMSWVRQAPEKRLEWVSSISSGGSTYYPDSVKGRFTISRDNSKNTLYLQMNSLRAEDTAVYYCARVNYYGYGDYAMDYWGQGTLVTVSS VL: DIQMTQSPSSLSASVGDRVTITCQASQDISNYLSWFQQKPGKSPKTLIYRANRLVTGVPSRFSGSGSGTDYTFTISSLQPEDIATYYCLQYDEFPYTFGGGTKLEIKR
# output 0.21

# input Look up EC50 for this binder: 3D8-Hu55 (antibody, human IgG1, kappa, V domains shown, humanized, human IgG1 / kappa) VH: EVQLVESGGGLVQPGGSLRLSCAASGFTFSSYAMSWVRQAPGKGLEWVSSINSGGSTYYPDSVKGRFTISRENAKNSLYLQMNSLRAGDTAVYYCARVNYYGYGDYAMDYWGQGTLVTVSS VL: DIQMTQSPSSLSASVGDRVTITCQASQDINSYLSWFQQKPGKAPKTLIYRANRLVTGVPSRFSGSGSGTDFTFTISSLQPEDIATYYCLQYDEFPYTFGGGTKLEIKR
# output 0.33

# input Look up EC50 for this binder: 38F8-Hu66 (antibody, human IgG1, kappa, V domains shown, humanized, human IgG1 / kappa) VH: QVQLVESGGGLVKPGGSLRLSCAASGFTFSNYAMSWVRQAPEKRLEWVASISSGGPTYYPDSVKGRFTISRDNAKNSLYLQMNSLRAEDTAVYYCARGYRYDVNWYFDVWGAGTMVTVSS VL: DIQMTQSPSSLSASVGDRVTITCQASQDINSYLTWFQQKPGKSPKTLIHRANRLVTGVPSRFSGSGSGTDFTFTISSLQPEDIATYYCLQYDEFPYTFGGGTKVEIKR
# output 0.93

# input Look up EC50 for this binder: 38F8-Hu17 (antibody, human IgG1, kappa, V domains shown, humanized, human IgG1 / kappa) VH: EVQLVESGGGLVQPGGSLRLSCTASGFTFSNYAMSWVRQAPGKGLEWVASISSGGPTYYADSVKGRFTVSRDNSRNTLYLQMNSLRAEDTAVYYCARGYRYDVNWYFDVWGRGTLVTVSS VL: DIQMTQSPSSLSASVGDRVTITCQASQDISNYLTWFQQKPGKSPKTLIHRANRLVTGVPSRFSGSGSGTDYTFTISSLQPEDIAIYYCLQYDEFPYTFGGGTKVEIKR
# output 1.48

# input Look up EC50 for this binder: 38F8-Hu26 (antibody, human IgG1, kappa, V domains shown, humanized, human IgG1 / kappa) VH: EVQLVESGGGLVQPGGSLRLSCAASGFTFSNYAMSWVRQAPGKGLEWVASISSGGPTYYPDSVKGRFTVSRDNSKNTLYLQMNSLRAEDTAVYYCARGYRYDVNWYFDVWGAGTMVTVSS VL: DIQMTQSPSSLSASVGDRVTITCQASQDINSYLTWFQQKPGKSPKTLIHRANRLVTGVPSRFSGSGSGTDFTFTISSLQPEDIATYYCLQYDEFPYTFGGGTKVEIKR
# output 0.77

# input Look up EC50 for this binder: 3D8-HuC44 (antibody, human IgG1, kappa, V domains shown, humanized, human IgG1 / kappa) VH: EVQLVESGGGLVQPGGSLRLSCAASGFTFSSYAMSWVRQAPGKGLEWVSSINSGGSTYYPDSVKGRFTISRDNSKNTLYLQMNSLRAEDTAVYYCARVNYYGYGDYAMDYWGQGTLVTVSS VL: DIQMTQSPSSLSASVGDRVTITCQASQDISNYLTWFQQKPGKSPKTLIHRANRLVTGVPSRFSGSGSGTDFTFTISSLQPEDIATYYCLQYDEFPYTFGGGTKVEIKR
# output 0.28

# input Look up EC50 for this binder: 3D8-Hu25 (antibody, human IgG1, kappa, V domains shown, humanized, human IgG1 / kappa) VH: EVQLVESGGGLVQPGGSLRLSCAASGFTFSSYAMSWVRQAPGKGLEWVASINSGGSTYYPDSVKGRFTISRDNAKNSLYLQMNSLRAEDTAVYYCARVNYYGYGDYAMDYWGQGTLVTVSS VL: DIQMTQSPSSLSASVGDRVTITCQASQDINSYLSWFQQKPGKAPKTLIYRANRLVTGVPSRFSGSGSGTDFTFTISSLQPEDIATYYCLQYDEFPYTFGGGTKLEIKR
# output 0.29
